Reported protein stability index values for the following sequences.
# assay.method.text: protein stability index of a GFP-peptide fusion (yeast GPS) (PSI 1-4); higher = more stable; sorted into four equal gates, so the index is relative within each strain
# setup.conditions: ubr1∆
endpoint.name: protein stability index

| sequence.input | endpoint.name | numeric.readout |
| --- | --- | --- |
| ESVPTPANAEPQAVTIT [ITC1] | protein stability index | 3.18 |
| KPQEIKDILVKTGITKK [PRE9] | protein stability index | 3.15 |
| FGAKSDENKAGATSKPA [YJL041W/NSP1] | protein stability index | 3.25 |
| RVQLSGKIQENIPFWKH [SRP72] | protein stability index | 2.4 |
| SFLHVDDKLAYIRVNHA [POP8] | protein stability index | 2.56 |
| IDLCHDFPHLTPKLQTQ [YCS4] | protein stability index | 2.49 |
| SIPPATIETFNEAALVV [RPB5] | protein stability index | 3.15 |
| KSSLSLRDHALSLTAFT [ITC1] | protein stability index | 2.16 |
| LSIDKVLKKPNRAMEYD [RET1] | protein stability index | 1.98 |
| KISNSEFFNPEIFHLLQ [SIN4] | protein stability index | 2.16 |
| ECGTGTTIHTFNRKENP [RPN14] | protein stability index | 2.05 |
| YSNEPFNTNFDDEFGDL [SNF6] | protein stability index | 3.06 |
| RSTDEFNGAQLKAVTVE [RPT5] | protein stability index | 2.06 |
| KNVLANSIWGSSLRKNA [ITC1] | protein stability index | 1.45 |
| EQVKDDGTSTEKTFLHL [RPN8] | protein stability index | 3.46 |

====

# assay.method.text: protein stability index of a GFP-peptide fusion (yeast GPS) (PSI 1-4); higher = more stable; sorted into four equal gates, so the index is relative within each strain
# setup.conditions: pdr5∆
endpoint.name: protein stability index

| sequence.input | result |
| --- | --- |
| CLQDALDAIDDFIQLKQ [SSN2] | 2.6 |
| YRSHIFATNEERQMNFL [SWI3] | 2.69 |
| LKCAERQLTSMEFSNLY [NUT1] | 1.87 |
| GGLFGNSAQNNSTTSGG [YGR119C/NUP57] | 3.36 |
| KKMDDYIHRIGRTGRAA [PRP28] | 3.28 |
| NLEFDSTNHPDYDVSKK [SRP14] | 3.25 |
| RSTDEFNGAQLKAVTVE [RPT5] | 3.71 |
| THLHEALDIVCSDFVKI [NUT1] | 2.48 |
| ITGEDEVLCSRIIEKSV [RRP45] | 2.45 |
| INVLTDQNPIQVVVDAI [RPS5] | 2.59 |
| PNFNVEIMQQKFPATNV [ECM29] | 3 |
| VNEDPIFHPMIHYSWSF [YML103C/NUP188] | 2.46 |
| RATNCRKRKCGHTNQLR [RPL40A] | 3.13 |
| KPFLKKTQEYYTQYTND [CDC53] | 3.12 |
| SGDESNVISSKDWELEA [YDL116W/NUP84] | 3.36 |
| LINLAKTRVGSVTAQVY [RPC82] | 1.66 |
| MLPPKSVKFTHIAHTLP [SSN2] | 2 |
| ETKSWINESAENFSNGI [MED1] | 2.72 |
| EENSSSNGNNLPLNKPR [RGR1] | 3.29 |
| VFFDDDPLYDITKVPAL [REC8] | 2.92 |
| RTLEAITATLVGTVRCE [CSL4] | 1.91 |
| ILTSKVNAIKNEVKEWA [DSN1] | 2.66 |
| KLSNIWMQRQLIKGDAG [SRB2] | 1.16 |
| TISSKPDILATDLIREK [YCS4] | 2.54 |
| KEIYTTLGNQMLSAHNI [YJR042W/NUP85] | 2.82 |
| PYPKSRYNRAVPDSKIR [RPL10] | 3.19 |
| KEPRLVIVTDPRSDAQA [RPS0A] | 3.06 |
| AADILCELQVETYGSME [RPN5] | 3.34 |
| ENDIIKLSDSKTSNIES [BRR2] | 2.48 |
| RNEKIAVHVTVRGPKAE [RPL11A] | 2.3 |
| PLGILHIPICVTFSFFN [RRP45] | 1.26 |
| FMDETAVALAASDLVLI [SNU114] | 2.74 |
| TGVSVEAVDDVFQAKMM [RPN11] | 3.06 |
| KVLRKFRVQSQSNYGIY [NUT1] | 2.29 |
| HGIVFQHPFPLAHSQHR [SSN2] | 2.23 |
| PWGDYLQLETPAEVGRA [BRR2] | 1.8 |
| ADKPFTRLTAYQELAYR [YML031W/NDC1] | 3.17 |
| PSMMAPLRDNGLLDESP [YML031W/NDC1] | 2.79 |
| HLIPNEIKGASETPLQK [RPN4] | 1.57 |
| GRMDMTRLYDYEIRDID [SSN2] | 2.94 |
| LQQKQQQRFQALQQQQQ [SWI1] | 1.53 |
| GAIKPFTPKLIYDFITL [ECM29] | 1.84 |
| TIYNLQHHVTDADKLSF [YML031W/NDC1] | 2.33 |
| QLIDQFEWDISNSDNCP [SNF5] | 3.18 |
| NEAEQVYLSLLDKDSSQ [RPN6] | 3.29 |
| NIPWDVPGMPAPIKKII [PRP8] | 2.91 |
| ISSSAIPYSRNAPAWFK [RPS13] | 2.9 |
| DHFIHLRNLHMKRMVAQ [SNF12] | 2.52 |
| HLRYQPDGVVVHRDDPA [SNF6] | 3.29 |
| VEFNRKVVIPNLLCYYN [RPN3] | 1.67 |
| FKLDKDTSNWELSDSWR [YGL100W/SEH1] | 3.45 |
| NFEKILLTCYELEKKYH [SRB8] | 2.34 |
| PQAVTITSIMDDLALPY [ITC1] | 2.98 |
| TTNNNNTNNNNTNNNNN [SWI1] | 3.5 |
| FLRPTYPDLCSIYDKWT [RPN1] | 2.82 |
| IQRTLMELLTQMDGFDN [RPT4] | 3.22 |
| DGIFSSKTDNIEDPNLS [YMR153W/NUP53] | 2.2 |
| ESQEKYMEPFDLDLNEQ [NSL1] | 3.21 |
| CLTMFEDRNESVNIAFA [ECM29] | 2.52 |
| VDQGQIYRDRSTFTKHL [ITC1] | 3.33 |

====

# assay.method.text: protein stability index of a GFP-peptide fusion (yeast GPS) (PSI 1-4); higher = more stable; sorted into four equal gates, so the index is relative within each strain
# setup.conditions: pdr5∆

| sequence.input | protein stability index |
| --- | --- |
| TDCKFIRVSGAELVQKY [RPT6] | 3.24 |
| VPPPPVRPSISFNESQR [RPO21] | 2.78 |
| ELDRAAMNDKDLTMGQV [RPO21] | 3.31 |
| TIHAKRKIVFRCSECIK [RPN4] | 2.73 |
| MQIFVKTLTGKTITLEV [RPS31] | 1.76 |
| HMATALQIAQLTLKHRQ [RPN10] | 1.8 |
| NGNLTSNQLISNYAASN [SWI1] | 2.89 |
| YDNIDIQRGRILPTDGS [RPB7] | 3.06 |
| VAKVDEEGRAIPGEYIT [RPS21B] | 2.52 |
| DTVNSALENDVATNIVN [YML103C/NUP188] | 3.14 |
| SGGEREIQRTMLELLNQ [RPT2] | 3.74 |
| PKELVPSHEKLKESYSQ [CDC53] | 3.02 |
| MKRADKFKDMGIRAPKG [RPT5] | 3.38 |
| LELTTGATYRGKLVESE [SMD3] | 3.26 |
| QQQQIQVPLQQTQAIAQ [YGR119C/NUP57] | 2.82 |
| GEILLPDIADIPRTFRT [SNF5] | 3.18 |
| SMRVKPSASLKLHHDLK [YMR129W/POM152] | 2.98 |
| MCHIVRKFHELNDHIDD [GRR1] | 2.31 |
| SALTSPTDSSKILQKRS [SIR3] | 3.12 |
| SMSLQSKNLGEINTALN [SWI1] | 2.9 |
| DKINKYSLIRETNGYDP [SNF5] | 1.62 |
| YFLVLSPYGNLQNDLIH [RPN5] | 2.42 |
| HFELGGEKKQKGQALQF [RPL42A] | 2.88 |
| MKSLLTELSNKETTIEK [YIL149C/MLP2] | 3 |
| LDTLPSEFDSRVKAMEV [RPT5] | 3.11 |
| CGGINDSIPYPQIVKLF [ECM29] | 1.31 |
| LSLQRANVEILAVEDKP [CSL4] | 1.44 |
| KIPILAQHESFLRQKIC [RPN9] | 2.06 |
| KFADGFLIHSGQPVNDF [RPS3] | 3.07 |
| GVLLRDAHGVTQARVIT [RPS13] | 2.57 |
